Origin of measurements: patent US4314028A

protocol.notes: Acute toxicity, single dose LD50
Format: in vivo, dd mice
experimental.context: ip, 30 days observation, copper-chelated form unless otherwise stated
Exercise: state measured LD50 single dose for each of the compounds provided.
Numbers only, in mg/kg/day.

Hey, can you go through the list below and give me LD50 single dose for every item?
1. Cc1c(N)nc(C(CC(N)=O)NCC(N)C(N)=O)nc1C(=O)NC(C(=O)NC(C)C(O)CC(=O)NC(C(=O)NC(OC1OC(C)C(N)C(O)C1O)C(O)c1nc(-c2nc(C(=O)NCCCNCCO)cs2)cs1)C(C)O)C(OC1OC(CO)C(O)C(O)C1OC1OC(CO)C(O)C(OC(N)=O)C1O)c1c[nH]cn1 (stereo not drawn)
2. Cc1c(N)nc(C(CC(N)=O)NCC(N)C(N)=O)nc1C(=O)NC(C(=O)NC(C)C(O)CC(=O)NC(C(=O)NC(OC1OC(C)C(N)C(O)C1O)C(O)c1nc(-c2nc(C(=O)NCCCC(N)CC(=O)NCCCNCCO)cs2)cs1)C(C)O)C(OC1OC(CO)C(O)C(O)C1OC1OC(CO)C(O)C(OC(N)=O)C1O)c1c[nH]cn1 (stereo not drawn)
3. Cc1c(N)nc(C(CC(N)=O)NCC(N)C(N)=O)nc1C(=O)NC(C(=O)NC(C)C(O)CC(=O)NC(C(=O)NC(OC1OC(C)C(N)C(O)C1O)C(O)c1nc(-c2nc(C(=O)NCCNCCO)cs2)cs1)C(C)O)C(OC1OC(CO)C(O)C(O)C1OC1OC(CO)C(O)C(OC(N)=O)C1O)c1c[nH]cn1 (stereo not drawn)

1. 30
2. 15
3. 32

====

Test system: Staphylococcus aureus Smith
protocol.notes: MIC, two-fold agar dilution method
Assay type: cell-based
experimental.context: nutrient agar
experimental.endpoint: minimum inhibitory concentration (MIC)
One number for each entry.

Hey, can you go through the list below and give me minimum inhibitory concentration (MIC) for every item?
1. Cc1c(N)nc(C(CC(N)=O)NCC(N)C(N)=O)nc1C(=O)NC(C(=O)NC(C)C(O)CC(=O)NC(C(=O)NC(OC1OC(C)C(N)C(O)C1O)C(O)c1nc(-c2nc(C(=O)NCCCC(N)CC(=O)NCCCNC(C)c3ccccc3)cs2)cs1)C(C)O)C(OC1OC(CO)C(O)C(O)C1OC1OC(CO)C(O)C(OC(N)=O)C1O)c1c[nH]cn1 (stereo not drawn) [Tallysomycin S14a]
2. Cc1c(N)nc(C(CC(N)=O)NCC(N)C(N)=O)nc1C(=O)NC(C(=O)NC(C)C(O)CC(=O)NC(C(=O)NC(OC1OC(C)C(N)C(O)C1O)C(O)c1nc(-c2nc(C(=O)NCCCC(N)CC(=O)NCCCN(CCO)CCO)cs2)cs1)C(C)O)C(OC1OC(CO)C(O)C(O)C1OC1OC(CO)C(O)C(OC(N)=O)C1O)c1c[nH]cn1 (stereo not drawn) [Tallysomycin S8a]

1: 0.8; 2: 0.2

Recorded minimum inhibitory concentration (MIC) (molecule Cc1c(N)nc(C(CC(N)=O)NCC(N)C(N)=O)nc1C(=O)NC(C(=O)NC(C)C(O)CC(=O)NC(C(=O)NC(OC1OC(C)C(N)C(O)C1O)C(O)c1nc(-c2nc(C(=O)NCCNCC(C)O)cs2)cs1)C(C)O)C(OC1OC(CO)C(O)C(O)C1OC1OC(CO)C(O)C(OC(N)=O)C1O)c1c[nH]cn1 (stereo not drawn) [Tallysomycin S5b] ): 6.3

====

protocol.notes: Subacute toxicity, multiple dose LD50
Type: in vivo, dd mice
experimental.context: ip, once daily 9 days, 30 days observation; copper-chelated form unless otherwise stated
Exercise: state measured LD50 multiple dose (qd 1 → 9) for each of the compounds provided.
Numbers only, in mg/kg/day.

Look over these answered cases.
compound	unit.label	LD50 multiple dose (qd 1 → 9)
Cc1c(N)nc(C(CC(N)=O)NCC(N)C(N)=O)nc1C(=O)NC(C(=O)NC(C)C(O)CC(=O)NC(C(=O)NC(OC1OC(C)C(N)C(O)C1O)C(O)c1nc(-c2nc(C(=O)NCCCNC(C)c3ccccc3)cs2)cs1)C(C)O)C(OC1OC(CO)C(O)C(O)C1OC1OC(CO)C(O)C(OC(N)=O)C1O)c1c[nH]cn1 (stereo not drawn) [Tallysomycin S14b]	mg/kg/day	16
Cc1c(N)nc(C(CC(N)=O)NCC(N)C(N)=O)nc1C(=O)NC(C(=O)NC(C)C(O)CC(=O)NC(C(=O)NC(OC1OC(C)C(N)C(O)C1O)C(O)c1nc(-c2nc(C(=O)NCCCC(N)CC(=O)NCCCNCCCCN)cs2)cs1)C(C)O)C(OC1OC(CO)C(O)C(O)C1OC1OC(CO)C(O)C(OC(N)=O)C1O)c1c[nH]cn1 (stereo not drawn) [Tallysomycin A (Cu-free), reference compound]	mg/kg/day	4.4

Consider the additional compound presented here.
Recorded LD50 multiple dose (qd 1 → 9) (compound Cc1c(N)nc(C(CC(N)=O)NCC(N)C(N)=O)nc1C(=O)NC(C(=O)NC(C)C(O)CC(=O)NC(C(=O)NC(OC1OC(C)C(N)C(O)C1O)C(O)c1nc(-c2nc(C(=O)NCCCCN)cs2)cs1)C(C)O)C(OC1OC(CO)C(O)C(O)C1OC1OC(CO)C(O)C(OC(N)=O)C1O)c1c[nH]cn1 (stereo not drawn) [Tallysomycin S10b (Cu-free)] ): 4.0

====

System: Staphylococcus aureus Smith
protocol.notes: MIC, two-fold agar dilution method
Format: cell-based
experimental.context: nutrient agar
experimental.endpoint: minimum inhibitory concentration (MIC)
Answers are plain numbers.

Look over these answered cases.
compound	numeric.readout
Cc1c(N)nc(C(CC(N)=O)NCC(N)C(N)=O)nc1C(=O)NC(C(=O)NC(C)C(O)CC(=O)NC(C(=O)NC(OC1OC(C)C(N)C(O)C1O)C(O)c1nc(-c2nc(C(=O)NCCCN(C)C)cs2)cs1)C(C)O)C(OC1OC(CO)C(O)C(O)C1OC1OC(CO)C(O)C(OC(N)=O)C1O)c1c[nH]cn1 (stereo not drawn)	6.3
CNCCCNC(=O)c1csc(-c2csc(C(O)C(NC(=O)C(NC(=O)CC(O)C(C)NC(=O)C(NC(=O)c3nc(C(CC(N)=O)NCC(N)C(N)=O)nc(N)c3C)C(OC3OC(CO)C(O)C(O)C3OC3OC(CO)C(O)C(OC(N)=O)C3O)c3c[nH]cn3)C(C)O)OC3OC(C)C(N)C(O)C3O)n2)n1 (stereo not drawn) [Tallysomycin S11b]	3.1
Cc1c(N)nc([C@H](CC(N)=O)NC[C@H](N)C(N)=O)nc1C(=O)N[C@H](C(=O)N[C@H](C)[C@@H](O)CC(=O)N[C@H](C(=O)NC(O[C@@H]1O[C@@H](C)[C@@H](N)[C@@H](O)[C@H]1O)C(O)c1nc(-c2nc(C(=O)NCCCCN)cs2)cs1)[C@@H](C)O)[C@@H](O[C@@H]1O[C@@H](CO)[C@@H](O)[C@H](O)[C@@H]1O[C@H]1O[C@H](CO)[C@@H](O)[C@H](OC(N)=O)[C@@H]1O)c1cnc[nH]1 (stereo partly drawn) [Tallysomycin S10b]	6.3
Cc1c(N)nc(C(CC(N)=O)NCC(N)C(N)=O)nc1C(=O)NC(C(=O)NC(C)C(O)CC(=O)NC(C(=O)NC(OC1OC(C)C(N)C(O)C1O)C(O)c1nc(-c2nc(C(=O)NCCCNC(C)c3ccccc3)cs2)cs1)C(C)O)C(OC1OC(CO)C(O)C(O)C1OC1OC(CO)C(O)C(OC(N)=O)C1O)c1c[nH]cn1 (stereo not drawn) [Tallysomycin S14b]	3.1
Cc1c(N)nc(C(CC(N)=O)NCC(N)C(N)=O)nc1C(=O)NC(C(=O)NC(C)C(O)CC(=O)NC(C(=O)NC(OC1OC(C)C(N)C(O)C1O)C(O)c1nc(-c2nc(C(=O)NCCCC(N)CC(=O)NCCCNCCO)cs2)cs1)C(C)O)C(OC1OC(CO)C(O)C(O)C1OC1OC(CO)C(O)C(OC(N)=O)C1O)c1c[nH]cn1 (stereo not drawn)	0.8

Consider the additional compound presented here.
Form field minimum inhibitory concentration (MIC) for item Cc1c(N)nc(C(CC(N)=O)NCC(N)C(N)=O)nc1C(=O)NC(C(=O)NC(C)C(O)CC(=O)NC(C(=O)NC(OC1OC(C)C(N)C(O)C1O)C(O)c1nc(-c2nc(C(=O)NCCCC(N)CC(=O)NCCCN)cs2)cs1)C(C)O)C(OC1OC(CO)C(O)C(O)C1OC1OC(CO)C(O)C(OC(N)=O)C1O)c1c[nH]cn1 (stereo not drawn) on Staphylococcus aureus Smith: 0.4

====

Test system: Lymphocytic leukemia P388
protocol.notes: animal or person
Format: in vivo, BDF1 mice
experimental.context: single dose LD50/ED125; copper-chelated form unless otherwise stated
experimental.endpoint: Antitumor therapeutic index P388
Answers are plain numbers.

Look over these answered cases.
compound	Antitumor therapeutic index P388
Cc1c(N)nc(C(CC(N)=O)NCC(N)C(N)=O)nc1C(=O)NC(C(=O)NC(C)C(O)CC(=O)NC(C(=O)NC(OC1OC(C)C(N)C(O)C1O)C(O)c1nc(-c2nc(C(=O)NCCCC(N)CC(=O)NCCCCN)cs2)cs1)C(C)O)C(OC1OC(CO)C(O)C(O)C1OC1OC(CO)C(O)C(OC(N)=O)C1O)c1c[nH]cn1 (stereo not shown) [Tallysomycin S10a]	96
Cc1c(N)nc(C(CC(N)=O)NCC(N)C(N)=O)nc1C(=O)NC(C(=O)NC(C)C(O)CC(=O)NC(C(=O)NC(OC1OC(C)C(N)C(O)C1O)C(O)c1nc(-c2nc(C(=O)NCCN)cs2)cs1)C(C)O)C(OC1OC(CO)C(O)C(O)C1OC1OC(CO)C(O)C(OC(N)=O)C1O)c1c[nH]cn1 (stereo not shown) [Tallysomycin S3b]	59

Hey, can you go through the list below and give me Antitumor therapeutic index P388 for every item?
1. Cc1c(N)nc(C(CC(N)=O)NCC(N)C(N)=O)nc1C(=O)NC(C(=O)NC(C)C(O)CC(=O)NC(C(=O)NC(OC1OC(C)C(N)C(O)C1O)C(O)c1nc(-c2nc(C(=O)NCCCN(CCO)CCO)cs2)cs1)C(C)O)C(OC1OC(CO)C(O)C(O)C1OC1OC(CO)C(O)C(OC(N)=O)C1O)c1c[nH]cn1 (stereo not shown) [Tallysomycin S8b]
2. Cc1c(N)nc(C(CC(N)=O)NCC(N)C(N)=O)nc1C(=O)NC(C(=O)NC(C)C(O)CC(=O)NC(C(=O)NC(OC1OC(C)C(N)C(O)C1O)C(O)c1nc(-c2nc(C(=O)NCCCN(C)C)cs2)cs1)C(C)O)C(OC1OC(CO)C(O)C(O)C1OC1OC(CO)C(O)C(OC(N)=O)C1O)c1c[nH]cn1 (stereo not shown) [Tallysomycin S7b]
3. Cc1c(N)nc(C(CC(N)=O)NCC(N)C(N)=O)nc1C(=O)NC(C(=O)NC(C)C(O)CC(=O)NC(C(=O)NC(OC1OC(C)C(N)C(O)C1O)C(O)c1nc(-c2nc(C(=O)NCCCN)cs2)cs1)C(C)O)C(OC1OC(CO)C(O)C(O)C1OC1OC(CO)C(O)C(OC(N)=O)C1O)c1c[nH]cn1 (stereo not shown) [Tallysomycin S1b]

20
14
10
